tgt: HLA-A*24:02 (Homo sapiens, UniProt P04439, D101N/D140Y/D185E/E176V/E190D/F33S/G103R/G107R/I119L/I121M/I306V/K335N/L105A/L180Q/L300P/N151K/N90K/Q86E/Q94H/R106L/R138H/R89G/T104I/T345S/V100E/W191G/Y123F)
Type: binding
run.conditions: T2-A24 cells, peptide 100 μg/mL
attribute.measured: HLA-A24 binding (in words)

{"substance": "5 (MAYDRFVAV) [compound 5]", "attribute.measured": "HLA-A24 binding (in words)", "observed": "HLA-A24 binding"}
{"substance": "6 (MYLVTFTGNLL) [compound 6]", "attribute.measured": "HLA-A24 binding (in words)", "observed": "HLA-A24 binding"}
{"substance": "11 (VMAYDRFVAI) [compound 11]", "attribute.measured": "HLA-A24 binding (in words)", "observed": "HLA-A24 binding"}
{"substance": "3 (VMAYDRFVAV) [compound 3]", "attribute.measured": "HLA-A24 binding (in words)", "observed": "HLA-A24 binding"}
